- Format: in vivo, human
- experimental.setup: human, plasma, po, 20 mg, CLP/F, Group 4: severe; single oral 20 mg; mean ± SD
measurement.label: CL/F (mL/min)
Respond numerically; units are mL/min and should not be typed.

According to the records, this compound CCOCCn1c(C2CCN(CCc3ccc(C(C)(C)C(=O)O)cc3)CC2)nc2ccccc21 displays CL/F of 271

----------
- Format: in vivo, human
- experimental.setup: human, plasma, oral, 20 mg, Cmax, geometric LS mean, Test group 4: severe; ANOVA
measurement.label: Cmax (ng/mL)
Give just the number in ng/mL; leave the unit off.

# compound CCOCCn1c(C2CCN(CCc3ccc(C(C)(C)C(=O)O)cc3)CC2)nc2ccccc21 [bilastine] ; its Cmax = 214

----------
- Assay type: in vivo, human
- experimental.setup: human, plasma, oral, 20 mg, tmax, median, Reference (group 1: healthy)
measurement.label: Tmax
# number then unit; no other words

Lab book: Tmax of CCOCCn1c(C2CCN(CCc3ccc(C(C)(C)C(=O)O)cc3)CC2)nc2ccccc21 noted as 1.5 h

----------
- Assay type: in vivo, human
- experimental.setup: human, plasma, po, 20 mg, AUC∞, Group 4: severe; single oral 20 mg; mean ± SD
measurement.label: AUC(0-inf) (ng·h/mL)
Note: unit ng·h/mL is implicit; provide only the numeric part.

AUC(0-inf) recorded for this molecule, CCOCCn1c(C2CCN(CCc3ccc(C(C)(C)C(=O)O)cc3)CC2)nc2ccccc21 [bilastine] , is 1710

----------
- Format: in vivo, human
- experimental.setup: human, plasma, po, 20 mg, AUClast, Group 4: severe renal insufficiency (GFR ≤30); single oral 20 mg, fasted; mean ± SD, n = 6
measurement.label: AUC(0-t)
Note: state the figure and append the unit.

Lab note: measured AUC(0-t) of CCOCCn1c(C2CCN(CCc3ccc(C(C)(C)C(=O)O)cc3)CC2)nc2ccccc21 [bilastine] was 1650 ng·h/mL

----------
- Format: in vivo, human
- experimental.setup: human, plasma and urine, po, 20 mg, CLR, Group 1: healthy; single oral 20 mg; mean ± SD
measurement.label: CL renal
Phrase the answer as number then unit, nothing more needed.

The measured CL renal associated with CCOCCn1c(C2CCN(CCc3ccc(C(C)(C)C(=O)O)cc3)CC2)nc2ccccc21 [bilastine] reads 145 mL/min

----------
- Assay type: in vivo, human
- experimental.setup: human, plasma, oral, 20 mg, AUC∞, geometric LS mean, Test group 4: severe; ANOVA
measurement.label: AUC(0-inf)
Kindly report the value followed by its unit.

Consider CCOCCn1c(C2CCN(CCc3ccc(C(C)(C)C(=O)O)cc3)CC2)nc2ccccc21 . Its measured AUC(0-inf) is 1510 ng·h/mL

----------
- Format: in vivo, human
- experimental.setup: human, plasma, po, 20 mg, Vz/F, Group 4: severe; single oral 20 mg; mean ± SD
measurement.label: Vd/F (L)
Use L as the unit, but write only the number.

Sample CCOCCn1c(C2CCN(CCc3ccc(C(C)(C)C(=O)O)cc3)CC2)nc2ccccc21 [bilastine] ; Vd/F observed: 351

----------
- Type: in vivo, human
- experimental.setup: human, plasma, po, 20 mg, CLP/F, Group 2: mild; single oral 20 mg; mean ± SD
measurement.label: CL/F (mL/min)
The reply should contain only the number, in mL/min.

Field CL/F (entry CCOCCn1c(C2CCN(CCc3ccc(C(C)(C)C(=O)O)cc3)CC2)nc2ccccc21 ) reads 351
